Biological target: T1, Human MMP1 (human, UniProt P03956 20-469, limits assumed)
T1 sequence (looked up): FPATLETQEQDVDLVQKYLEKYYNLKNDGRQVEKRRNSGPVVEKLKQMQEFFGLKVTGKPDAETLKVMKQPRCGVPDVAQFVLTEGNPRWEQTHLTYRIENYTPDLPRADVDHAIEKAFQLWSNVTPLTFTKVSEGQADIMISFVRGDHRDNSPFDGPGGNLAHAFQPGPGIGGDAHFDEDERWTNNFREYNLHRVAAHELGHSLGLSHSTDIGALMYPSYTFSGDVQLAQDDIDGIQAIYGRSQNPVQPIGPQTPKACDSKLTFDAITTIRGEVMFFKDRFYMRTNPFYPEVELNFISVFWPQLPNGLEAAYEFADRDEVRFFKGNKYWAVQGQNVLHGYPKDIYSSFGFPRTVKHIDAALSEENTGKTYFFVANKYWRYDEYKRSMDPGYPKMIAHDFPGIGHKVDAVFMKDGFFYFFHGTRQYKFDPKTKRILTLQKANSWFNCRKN
Assay: celTRF and Octet QK cross-reactivity
readout.name: binding result

7B4.1E11 (antibody, IgG1, V domains shown, also called Murine 7B4.1E11) VH: EVKLEESGGGLVQPGGSMKLSCAASGFTSSDAWMDWVRQSPEKGLEWVAEIRNKANNHARHYAESVKGRFTISRDDSKSSVYLQMNSLRAEDSGIYYCTRTYYYGSSYGYCDVWGTGTTVTVSS VL: DIQMTQSPASLSASVGETVTITCRTSENIYSYLAWYQQKQGKSPQLLVYNAKTLAEGVPSRFSGSGSGTQFSLKINSLQPEDFGSYSCQHHYGTPWTFGGGTKLEIKR    no binding
5F10.1H6 (antibody, V domains shown, Murine monoclonal antibody from a hybridoma) VH: EVKLEESGGGLVQPGGSMKLSCAASGFTFSDAWMDWVRQSPEKGLEWVAEIRHKANDHAIFYDESVKGRFTISRDDSKSIVYLQMNSLRPEDTGIYYCTSPFAYWGQGTLVTVSA VL: DIVMTQSQRFMSVTVGDRVSITCKASQSVGTTIVWYQQKPGQSPKLLIYSASTRYTGVPDRFTGGGSGTDFILTINNVQSEDLADYFCQQYSSYPFTFGSGTKLEIKR    no binding
12F4.1H7 (antibody, IgG2, V domains shown, also called Murine 12F4.1H7) VH: EVKLEESGGGLVQPGGSMKLSCTASGFTFSDAWMDWVRQSPEKGLEWVAEIRHKANDHAIFYDESVKGRFTISRDDSKNIVYLQMNSLRPEDTGIYYCTSPFAYWGQGTLVTVSA VL: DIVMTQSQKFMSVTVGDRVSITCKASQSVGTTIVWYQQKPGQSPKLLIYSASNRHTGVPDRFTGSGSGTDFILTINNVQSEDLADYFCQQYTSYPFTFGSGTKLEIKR    no binding
3A12.1D7 (antibody, V domains shown, Murine monoclonal antibody from a hybridoma) VH: EVKFEESGGGLVQPGGSMKLSCAASGFIFSDAWMDWVRQSPEKGLEWVAEIRHKANDYAIFYDESVKGRFTISRDDSKSIVYLQMNNLRPEDTGIYYCTSPFAYWGQGTLVTVSA VL: DIVMTQSQKFMSVTVGDRVSITCKASQSVGTTIVWYQQKPGQSPKLLIYSASNRHTGVPDRFTGSGSGTDFILTISNVQSEDLADYFCQQYSSYPFTFGSGTKLEIKR    no binding
